Measured log10 Ki accompanies every entry in the list below.
# Study Target: recombinant human beta tryptase (Homo sapiens, UniProt P20231)
# Construct: made in house; host or cells: yeast cells
# Sequence (P20231 31-275): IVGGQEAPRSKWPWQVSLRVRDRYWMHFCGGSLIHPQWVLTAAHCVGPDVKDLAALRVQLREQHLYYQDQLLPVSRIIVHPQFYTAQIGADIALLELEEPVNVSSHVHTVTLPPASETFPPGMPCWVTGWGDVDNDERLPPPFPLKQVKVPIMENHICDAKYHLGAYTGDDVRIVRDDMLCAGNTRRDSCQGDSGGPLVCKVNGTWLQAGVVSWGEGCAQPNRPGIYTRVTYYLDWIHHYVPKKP
# Assay Summary: beta-Tryptase inhibition, chromogenic enzyme assay (substrate S2366, read at 405 nm)
# Type: biochemical
# Protocol Conditions: Tryptase Ki (nM), Ki calculated from IC50: Ki=IC50/(1+[Substrate]/Km); 0.5 mM substrate, room temperature
Structures can show the parent of a compound that is named as a salt.
Values below are the log10 of the recorded Ki, with nM as the unit.

Solved cases below.
COCCn1cc(C(=O)N2CCC(c3cc(CN)ccc3F)CC2)c2c(NC(=O)c3cnco3)cccc21 [Example 124, hydrochloride]	0.90
NCc1ccc(F)c(C2CCN(C(=O)c3cn(CCOCCO)c4c(OC(F)(F)F)cccc34)CC2)c1 [Example 27, hydrochloride]	2.21

Return log10 Ki (reported value) for this compound: COCCn1cc(C(=O)N2CCC(c3cc(CN)ccc3F)CC2)c2c(-c3cc(Cl)cc(Cl)c3)cccc21 [Example 66, hydrochloride] 2.21

Fill in log10 Ki for record CNc1cccc2c1c(C(=O)N1CCC(c3cc(CN)ccc3F)CC1)cn2CCOC [Example 76, hydrochloride] 2.32

Write down log10 Ki measured for item NCc1ccc(F)c(C2CCN(C(=O)c3cn(CCOC(F)(F)F)c4cccc(-c5ccccc5)c34)CC2)c1 [Example 80, hydrochloride] 2.98

For COCCn1cc(C(=O)N2CCC(c3cc(CN)ccc3F)CC2)c2c(-c3cccs3)cccc21 [Example 64, hydrochloride] , write its log10 Ki. 1.59

Given the compound Cc1cccc2c(C(=O)N3CCC(c4cc(CN)ccc4F)CC3)cn(CCCO)c12 [Example 17, hydrochloride] , write its reported log10 Ki. 1.57

---

# Study Target: recombinant human beta tryptase (Homo sapiens)
# Construct: made in house; host or cells: yeast cells
# Assay Summary: beta-Tryptase inhibition, chromogenic enzyme assay (substrate S2366, read at 405 nm)
# Format: biochemical
# Protocol Conditions: Tryptase Ki (nM), Ki calculated from IC50: Ki=IC50/(1+[Substrate]/Km); 0.5 mM substrate, room temperature
Where a name gives a salt, the structure may show the parent alone.
Observed Property: Ki (nM)
Dear colleague, please return just the value in nM, with no unit written.

As a guide, the following entries are already answered.
COCCn1cc(C(=O)N2CCC(c3cc(CN)ccc3F)CC2)c2c(C)cccc21 [Example 44, hydrochloride]	51
NCc1ccc(F)c(C2CCN(C(=O)c3cn(CCCF)c4c(OC(F)(F)F)cccc34)CC2)c1 [Example 34, hydrochloride]	1010

Entry COCCn1cc(C(=O)N2CCC(c3cc(CN)ccc3F)CC2)c2c(OC(F)(F)F)cccc21 [Example 54, hydrochloride] needs its Ki filled in; supply it. 96

Given COCCn1cc(C(=O)N2CCC(c3cc(CN)ccc3OCC(=O)OC)CC2)c2cccc(C)c21 [Example 23, hydrochloride] , respond with its Ki. 42

Output measured Ki for this item: CNC(=O)COc1ccc(CN)cc1C1CCN(C(=O)c2cn(CCOC)c3c(C)cccc23)CC1 [Example 26, hydrochloride] 306

Give the reported Ki for this molecule. CC(C)(O)CCn1cc(C(=O)N2CCC(c3cc(CN)ccc3F)CC2)c2ccccc21 [Example 50, hydrochloride] 241

---

# Study Target: recombinant human beta tryptase (Homo sapiens, UniProt P20231)
# Construct: made in house; host or cells: yeast cells
# Assay Summary: beta-Tryptase inhibition, chromogenic enzyme assay (substrate S2366, read at 405 nm)
# Type: biochemical
# Protocol Conditions: Tryptase Ki (nM), Ki calculated from IC50: Ki=IC50/(1+[Substrate]/Km); 0.5 mM substrate, room temperature
Counter-ions that a name gives are not always drawn.
Observed Property: Ki (nM)
Answer with a number only, understood to be in nM.

COCCn1cc(C(=O)N2CCC(c3cc(CN)ccc3F)CC2)c2c(OC(C)C)cccc21 [Example 68, hydrochloride]	35

Please supply the value of reported Ki for the item COCCn1cc(C(=O)N2CCC(c3cc(CN)ccn3)CC2)c2cccc(C)c21 [Example 119, hydrochloride] 180

Look up Ki of COCCn1cc(C(=O)N2CCC(c3cc(CN)ccc3F)CC2)c2c(-c3cccc(O)c3)cccc21 [Example 72, hydrochloride] and report it. 13

---

# Study Target: recombinant human beta tryptase (Homo sapiens, UniProt P20231)
# Construct: made in house; host or cells: yeast cells
# Assay Summary: beta-Tryptase inhibition, chromogenic enzyme assay (substrate S2366, read at 405 nm)
# Format: biochemical
# Protocol Conditions: Ki calculated from IC50: Ki=IC50/(1+[Substrate]/Km); 0.5 mM substrate, room temperature; read-out: Tryptase Ki
Counter-ions that a name gives are not always drawn.
Reported values of pKi for individual entries
Keep in mind that pKi stands for -log10 of concentration in molar terms.

Guide cases for pKi, answers given:
COCCn1cc(C(=O)N2CCC(c3cc(CN)ccc3F)CC2)c2c(-c3cncnc3)cccc21 [Example 61, dihydrochloride]	7.77
COCCn1cc(C(=O)N2CCC(c3cc(CN)ccc3F)CC2)c2c(-c3cncc(F)c3)cccc21 [Example 84, dihydrochloride]	7.66
COCCn1cc(C(=O)N2CCC(c3cc(CN)ccc3F)CC2)c2c(-c3cncc(C)c3)cccc21 [Example 82, dihydrochloride]	8.22
COCCn1cc(C(=O)N2CCC(c3cc(CN)ccc3F)CC2)c2c(-c3ccccn3)cccc21 [Example 74, dihydrochloride]	7.59
COCCn1cc(C(=O)N2CCC(c3cc(CN)ccc3F)CC2)c2c(-c3ccncc3)cccc21	8.05

Name the recorded pKi of the item Cc1cccc2c(C(=O)N3CCC(c4cc(CN)ccc4F)CC3)cn(CCN3CCCC3)c12 [Example 13, dihydrochloride] in your answer. 7.12

Answer with reported pKi of NCc1ccc(F)c(C2CCN(C(=O)c3cn(CCc4ccccn4)c4ccccc34)CC2)c1 [Example 40, dihydrochloride] 7.60

---

Reported Ki values for a set of compounds
# Study Target: recombinant human beta tryptase (Homo sapiens, UniProt P20231)
# Construct: made in house; host or cells: yeast cells
# Assay Summary: beta-Tryptase inhibition, chromogenic enzyme assay (substrate S2366, read at 405 nm)
# Type: biochemical
# Protocol Conditions: Tryptase Ki (nM), Ki calculated from IC50: Ki=IC50/(1+[Substrate]/Km); 0.5 mM substrate, room temperature
Where a name gives a salt, the structure may show the parent alone.
Unit nM implied. Number only.

Worked examples follow.
COCCn1cc(C(=O)N2CCC(c3cc(CN)ccc3F)CC2)c2cccc(C(F)F)c21 [Example 12, hydrochloride]	26
COCCn1cc(C(=O)N2CCC(c3cc(CN)ccc3F)CC2)c2cccc(C3CC3)c21 [Example 6, hydrochloride]	20

Return value of Ki for input COCCn1cc(C(=O)N2CCC(c3cc(CN)ccc3F)CC2)c2c(C(=O)NC3CC3)cccc21 [Example 123, hydrochloride] , no commentary. 50

---

# Study Target: recombinant human beta tryptase (Homo sapiens)
# Construct: made in house; host or cells: yeast cells
# Assay Summary: beta-Tryptase inhibition, chromogenic enzyme assay (substrate S2366, read at 405 nm)
# Format: biochemical
# Protocol Conditions: Tryptase Ki (nM), Ki calculated from IC50: Ki=IC50/(1+[Substrate]/Km); 0.5 mM substrate, room temperature
Where a name gives a salt, the structure may show the parent alone.
// values below are reported log10 Ki
Parameter value (number): base-10 log of Ki in nM.

Study these solved cases before continuing.
COCCn1cc(C(=O)N2CCC(c3cc(CN)ccc3F)CC2)c2c(NC(=O)C3CCCN(C)C3)cccc21 (stereo not shown) [Example 122, hydrochloride]	1.64
COCCn1cc(C(=O)N2CCC(c3cc(CN)ccc3F)CC2)c2c(NC(=O)c3cccc4c3OCC4)cccc21 [Example 120, hydrochloride]	0.48
COCCn1cc(C(=O)N2CCC(c3cc(CN)ccc3F)CC2)c2c(NC(=O)N3CCOCC3)cccc21 [Example 99, hydrochloride]	1.40
CCCCOc1ccc(CN)cc1C1CCN(C(=O)c2cn(CCOC)c3c(C)cccc23)CC1 [Example 114, hydrochloride]	2.72
COCCn1cc(C(=O)N2CCC(c3cc(CN)ccc3F)CC2)c2c(NS(=O)(=O)N(C)C)cccc21 [Example 104]	2.31
CN1CCCCC1CCn1cc(C(=O)N2CCC(c3cc(CN)ccc3F)CC2)c2ccccc21 (stereo not shown) [Example 30, dihydrochloride]	1.70

Identify measured log10 Ki associated with COCCn1cc(C(=O)N2CCC(c3cc(CN)ccc3F)CC2)c2c(-c3ccc(OC)cc3)cccc21 [Example 70, hydrochloride] 1.32

---

# Study Target: recombinant human beta tryptase (Homo sapiens)
# Construct: made in house; host or cells: yeast cells
# Assay Summary: beta-Tryptase inhibition, chromogenic enzyme assay (substrate S2366, read at 405 nm)
# Assay type: biochemical
# Protocol Conditions: Tryptase Ki (nM), additional value in parentheses tagged "8923" (code not explained)
Counter-ions that a name gives are not always drawn.
Observed Property: Ki (nM)
Lab book: enter the figure in nM, no units written.

Cc1cccc2c(C(=O)N3CCC(c4cc(CN)ccc4F)CC3)cn(CCc3ccccc3)c12 [Example 5, hydrochloride]	11
COCCn1cc(C(=O)N2CCC(c3cc(CN)ccc3F)CC2)c2c(C(=O)N(C)C)cccc21 [Example 91, hydrochloride]	28

Next compound, please.
Entry COCCn1cc(C(=O)N2CCC(c3cc(CN)ccc3F)CC2)c2c(NC(=O)C3CCOCC3)cccc21 [Example 95, hydrochloride] needs its Ki filled in; supply it. 15

Numbers sourced from patent US20120245161A1.
